B1: ZNF649 (parent)
chain: LTEHKRIHTGKKPHVCSLCGKAFY

Variants of: B1
protocolSummary: protein stability index of a GFP-peptide fusion (GPS, HEK-293T) (PSI 1-6); higher = more stable;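 also: lentivirally expressed fusions sorted by FACS into six bins by GFP to DsRed ratio, PSI derived from sequencing read proportions per bin multiplied by bin number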
settings: c terminus: a fixed tail appended
observationType: protein stability index
Answers are plain numbers.

variantdescription=H14V reportedvalue=1.96
variantdescription=L18I reportedvalue=2.23
variantdescription=H8D reportedvalue=2.67

Lab note: each variant below needs its protein stability index filled in.
1. Y24C
2. F23S
3. A22M
4. L1T
5. F23P
6. K21H
7. V15I
8. E3R

Result:
1: 3.33; 2: 2.97; 3: 2.85; 4: 2.58; 5: 3.32; 6: 1.91; 7: 2.69; 8: 1.86

# credit: the supplement of paper PMC10567573
